# experimental_details: Toxicity in Galleria mellonella assessed as survival at 125 to 150 mg/kg measured after 4 days relative to control
# Assay type: organism-based
# test_settings: in vivo, dose 125-150 mg/kg, time 4 day
outcome_measure: survival at 96 h (%)

> print(dat)
                                        smi  measurement
1  CCCCCCCCCCCCCCCCN[C@@H](CCCCN)C(=O)N[C@@H](CCCNC(=N)N)C(=O)N[C@@H](CCCCN)C(=O)N[C@@H](CCCNC(=N)N)C(=O)O           80

----------
# experimental_details: Cytotoxicity against human HT-29 cells assessed as inhibition of cell growth incubated for 24 hrs at pH 7.4 by MTT assay
# Type: toxicity, cell-based
# test_settings: HT-29 cells, pH 7.4
Starred links: 1 amine or outer side, 2 acyl side, 3 side chain; linkers in the order of their positions; H or OH if unused. Non-standard residues stand in square brackets, D forms with d. Residues, ends and D or L forms follow the SMILES beside them. ξ: configuration not given here. X3 = CCCCCCCCCCCCCCCCCCN([C@@H](Cc1c[nH]cn1)C(=O)[*:2])[*:1]; X5 = CCCCCCCCCCCCCCCCCCN([C@@H](CCCNC(=N)N)C(=O)[*:2])[*:1]; ξDap = NCC(N)C(=O)O
Reported IC50 at 24 h values are given for each entry in this list.

compound	scale_unit	IC50 at 24 h
CCCCCCCCCCCCCCCCCCN[C@@H](Cc1c[nH]cn1)C(=O)N[C@@H](Cc1c[nH]cn1)C(=O)NC(CN)C(=O)NC(CN)C(=O)NC(CN)C(=O)O (some centres not stated) (H-[X3]H[ξDap][ξDap][ξDap]-OH)	µg/mL	126
CCCCCCCCCCCCCCCCCCN[C@@H](CCCNC(=N)N)C(=O)N[C@@H](CCCNC(=N)N)C(=O)NC(CN)C(=O)NC(CN)C(=O)NC(CN)C(=O)O (some centres not stated) (H-[X5]R[ξDap][ξDap][ξDap]-OH)	µg/mL	117
